- Tested on: KRAS-mutant PDC complex spheroid viability;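 also: viability read after seven days of compound exposure; 100% = DMSO vehicle-treated spheroids so lower means less viable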
- PROCEDURE_SUMMARY: Anticancer human tumor 186277-243-T-J2-PDC patient-derived colon adenocarcinoma cell line growth inhibition [KRAS2]
- COND: second compound 0.1 µM; first compound 1 µM; hits give low values

MOLECULE	UNIT	viability, T/C
CC1(C)CCC(CN2CCN(c3ccc(C(=O)NS(=O)(=O)c4ccc(NCC5CCOCC5)c([N+](=O)[O-])c4)c(Oc4cnc5[nH]ccc5c4)c3)CC2)=C(c2ccc(Cl)cc2)C1 + COc1cc2nc(C)nc(NC(C)c3cc(N)cc(C(F)(F)F)c3)c2cc1OC1CCOC1	%	99.7
CC(=O)OC12COC1CC(O)C1(C)C(=O)C(O)C3=C(C)C(OC(=O)C(O)C(NC(=O)OC(C)(C)C)c4ccccc4)CC(O)(C(OC(=O)c4ccccc4)C21)C3(C)C (stereo unspecified) + COc1cc2nc(C)nc(NC(C)c3cc(N)cc(C(F)(F)F)c3)c2cc1OC1CCOC1	%	2.91
CC1COCCN1c1cc(-c2ccnn2C)c2ccnc(-c3ccn[nH]3)c2n1 (stereo unspecified) + C=CC(=O)N1CCN(c2nc(OCC3CCCN3C)nc3c2CCN(c2cccc4cccc(C)c24)C3)CC1CC#N	%	5.41
CC(=O)OC12COC1CC(O)C1(C)C(=O)C(O)C3=C(C)C(OC(=O)C(O)C(NC(=O)OC(C)(C)C)c4ccccc4)CC(O)(C(OC(=O)c4ccccc4)C21)C3(C)C (stereo unspecified) + CC1OCC2(CCN(c3cnc(Sc4ccnc(N)c4Cl)c(N)n3)CC2)C1N	%	2.12
COc1cc2nccc(Oc3ccc(NC(=O)C4(C(=O)Nc5ccc(F)cc5)CC4)cc3)c2cc1OC + C=CC(=O)N1CCN(c2nc(OCC3CCCN3C)nc3c2CCN(c2cccc4cccc(C)c24)C3)CC1CC#N	%	97.8
O=C(c1cc(Cc2n[nH]c(=O)c3ccccc23)ccc1F)N1CCN(C(=O)C2CC2)CC1 + COc1cc2nc(C)nc(NC(C)c3cc(N)cc(C(F)(F)F)c3)c2cc1OC1CCOC1	%	116
O=C(c1cc(Cc2n[nH]c(=O)c3ccccc23)ccc1F)N1CCN(C(=O)C2CC2)CC1 + CC1OCC2(CCN(c3cnc(Sc4ccnc(N)c4Cl)c(N)n3)CC2)C1N	%	109
COC(=O)c1ccc2c(C(=Nc3ccc(N(C)C(=O)CN4CCN(C)CC4)cc3)c3ccccc3)c(O)[nH]c2c1 + CC1OCC2(CCN(c3cnc(Sc4ccnc(N)c4Cl)c(N)n3)CC2)C1N	%	120
COc1cc(Nc2ncc3c(n2)-c2ccc(Cl)cc2C(c2c(F)cccc2OC)=NC3)ccc1C(=O)O + C=CC(=O)N1CCN(c2nc(OCC3CCCN3C)nc3c2CCN(c2cccc4cccc(C)c24)C3)CC1CC#N	%	31.2
CCN1CCN(Cc2ccc(Nc3ncc(F)c(-c4cc(F)c5nc(C)n(C(C)C)c5c4)n3)nc2)CC1 + CNCc1ccccc1-c1csc(C(C)Nc2nc(C)nc3cc(OC)c(OC)cc23)c1	%	72.5
CC(=O)OC12COC1CC(O)C1(C)C(=O)C(O)C3=C(C)C(OC(=O)C(O)C(NC(=O)OC(C)(C)C)c4ccccc4)CC(O)(C(OC(=O)c4ccccc4)C21)C3(C)C (stereo unspecified) + CNCc1ccccc1-c1csc(C(C)Nc2nc(C)nc3cc(OC)c(OC)cc23)c1	%	2.94
CC(=O)OC12COC1CC(O)C1(C)C(=O)C(O)C3=C(C)C(OC(=O)C(O)C(NC(=O)OC(C)(C)C)c4ccccc4)CC(O)(C(OC(=O)c4ccccc4)C21)C3(C)C (stereo unspecified) + C=CC(=O)N1CCN(c2nc(=O)n(-c3c(C)ccnc3C(C)C)c3nc(-c4c(O)cccc4F)c(F)cc23)C(C)C1	%	3.42
CC1COCCN1c1cc(-c2ccnn2C)c2ccnc(-c3ccn[nH]3)c2n1 (stereo unspecified) + C=CC(=O)N1CCN(c2nc(=O)n(-c3c(C)ccnc3C(C)C)c3nc(-c4c(O)cccc4F)c(F)cc23)C(C)C1	%	3.67
O=C(c1cc(Cc2n[nH]c(=O)c3ccccc23)ccc1F)N1CCN(C(=O)C2CC2)CC1 + C=CC(=O)N1CCN(c2nc(OCC3CCCN3C)nc3c2CCN(c2cccc4cccc(C)c24)C3)CC1CC#N	%	114
COc1cc2nccc(Oc3ccc(NC(=O)C4(C(=O)Nc5ccc(F)cc5)CC4)cc3)c2cc1OC + CC1OCC2(CCN(c3cnc(Sc4ccnc(N)c4Cl)c(N)n3)CC2)C1N	%	103
CC1COCCN1c1cc(-c2ccnn2C)c2ccnc(-c3ccn[nH]3)c2n1 (stereo unspecified) + CC1OCC2(CCN(c3cnc(Sc4ccnc(N)c4Cl)c(N)n3)CC2)C1N	%	2.91
